# maps each entry to its pKd
studyTarget: T1, recombinant full length human tissue factor pathway inhibitor (TFPI) (human, UniProt P10646 29-304)
T1 construct: also called TFPI1; human TFPI
experiment: SPR (Biacore), recombinant human TFPI
// pKd is dimensionless: -log10 of concentration (M)

HzTFPI4F36 HC-FR2, S49A (antibody, human IgG4 S228P, kappa, name in Kabat numbering, V domains shown, Mutated CDR-grafted heavy chain with wild type CDR-grafted light chain; Kabat numbering) VH: EVQLVESGGGLVKPGGSLRLSCAASGFTFSNYAMSWVRQTPEKRLEWVATISRSGSYSYYADSVKGRFTISRDNAKNSLYLQMNSLRAEDTAVYYCARLGGYDEGDAMDSWGQGTTVTVSS VL: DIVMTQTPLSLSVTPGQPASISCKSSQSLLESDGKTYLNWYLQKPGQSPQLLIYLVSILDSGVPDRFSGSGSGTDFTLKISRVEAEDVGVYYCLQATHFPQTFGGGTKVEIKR | 8.89

Could you now consider this next binder?
Input HzTFPI4F36 HC-S49A (antibody, human IgG4 S228P, kappa, name in Kabat numbering, V domains shown, Mutated CDR-grafted heavy chain with wild type CDR-grafted light chain; Kabat numbering) VH: EVQLVESGGGLVKPGGSLRLSCAASGFTFSNYAMSWVRQAPGKGLEWVATISRSGSYSYYADSVKGRFTISRDNAKNSLYLQMNSLRAEDTAVYYCARLGGYDEGDAMDSWGQGTTVTVSS VL: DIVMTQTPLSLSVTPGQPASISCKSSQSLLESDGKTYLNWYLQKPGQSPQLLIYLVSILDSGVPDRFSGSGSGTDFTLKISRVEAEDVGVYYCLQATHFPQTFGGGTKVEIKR . Output pKd: 8.52
